# System: RPMI-8226
# Protocol summary: NCI tumour cell line growth inhibition, 48 h
Calls of active or inactive are those of the source. No stated cut-off is given here; in the data, active = GI50 up to about 1.1 µM and inactive = higher.
GI50 listing for selected compounds.

Example entries and their recorded answers appear below.
CC1(C)CCCCCCC2CC2CCCCCC(C)(C)C1=O (stereo not given)
24.4 µM (inactive)
O=C1Cc2nc(CO)c(CO)c(CO)c2CO1
> 100 µM (inactive)
C/N=c1\sc2nc(C#N)c(C#N)nc2n1C
44.4 µM (inactive)
CC(=O)OCC1OC(n2c(-c3ccc(C)cc3)cc(-c3ccccc3)c(C#N)c2=O)C(OC(C)=O)C(OC(C)=O)C1OC(C)=O (stereo not given)
67.1 µM (inactive)
CN(C)c1ccc(/C=C2\CCCCCC2=O)cc1
94.4 µM (inactive)

What value of measured GI50 is listed for O=S(=O)(O)c1c(Cl)cc(O)c2ncccc12 ?
> 100 µM (inactive)

What value of measured GI50 is listed for CCN(CC)CCC(=O)c1ccc(Oc2ccc(F)cc2)cc1 ?
4.57 µM (inactive)

What value of measured GI50 is listed for CN(C)C(=S)NC(=S)Nc1ccc2ccccc2c1 ?
5.56 µM (inactive)

====

# System: CCRF-CEM
# Protocol summary: NCI tumour cell line growth inhibition, 48 h
Calls of active or inactive are those of the source. Cut-off read from the data, not from the text of the source: active = GI50 up to about 1.1 µM and inactive = higher.
Classes to choose from: active, inactive

Answered examples (8):
COC(=O)C(=O)C(C(=O)C(=O)Nc1ccc(Cl)cc1C)c1nc2ccc(C(=O)c3ccccc3)cc2nc1O (configuration not stated)
inactive
NC1CC(=O)c2csc(Br)c21 (configuration not stated)
inactive
CC(=O)OC(C)(C)[C@@H]1CC[C@]2(C)/C=C/[C@H](C)C[C@@H](O)C3=C(C)C[C@@H](O3)C12 (some centres not stated)
inactive
O=C1C=C(c2ccccc2)OC1C1Sc2ccccc2NC1=O (configuration not stated)
inactive
COc1cccc2c1C(=O)c1ccc3cc(CCl)cc(O)c3c1C2=O
active
O=C1c2ccccc2C(=O)C2C1C1C(=O)c3ccccc3C(=O)C21 (configuration not stated)
inactive
CC1(C)C2=CCCC(=O)[C@@]2(C)CC[C@@H]1O
inactive
Cc1ccc(N(C(=O)Nc2ccccc2)C2=NCC(C)S2)cc1C (configuration not stated)
inactive

Recorded test call requested for CCN1C(=O)C(=C/C=C/c2ccc(N(CC)CC)cc2)C(=O)N(CC)C1=S
inactive

Recorded test call requested for COC1=CC(=O)c2c(ccc3ncnc(N)c23)C1=O
active

Recorded test call requested for CC1C(=O)O[C@H]2C1CC[C@@]1(C)[C@H](O)CC[C@@]13C[C@]2(O)OO3 (some centres not stated)
inactive

Recorded test call requested for Cc1ccc(C)c2c1C1CCCCC3(OCCCO3)C21O (configuration not stated)
inactive

Recorded test call requested for C(=N\CCCN1CCN(CCC/N=C/c2cccc3ccccc23)CC1)/c1cccc2ccccc12
inactive

Recorded test call requested for CC(=O)OCC1OC(n2cccnc2=O)C(OC(C)=O)C1OC(C)=O (configuration not stated)
inactive

Recorded test call requested for O=C(N/C(=C\c1ccccc1Cl)c1nc2ccccc2[nH]1)c1ccccc1
inactive

Recorded test call requested for COC(=O)CC(C#N)(OP1(=O)OC(c2ccccc2)C(C)N1C)c1ccccc1 (configuration not stated)
inactive

Recorded test call requested for O=C1CCCCCCCCCCC(=O)N2CCOCCOCCN1Cc1cccc(n1)C2
inactive

====

# Test system: OVCAR-5
# Protocol summary: NCI tumour cell line growth inhibition, 48 h
Calls of active or inactive are those of the source. Rule as the data show it: active = GI50 up to about 1.1 µM and inactive = higher.
Outcome measure: GI50

Example entries and their recorded answers appear below.
c1cc2nsnc2c2c[nH]cc12
47.4 µM (inactive)
CC(=O)O[C@H]1CC[C@@]2(C)C(=CC[C@H]3[C@@H]4C/C(=C\c5ccc(N(C)C)cc5)[C@H](OC(C)=O)[C@@]4(C)CC[C@@H]32)C1
19.6 µM (inactive)
O=C(O)CCCSc1ccccc1
> 100 µM (inactive)

What value of measured GI50 is listed for C[N+]1(CCC(=O)c2ccco2)CC2CCC(CC2)C1 (centres undefined) ?
> 100 µM (inactive)

What value of measured GI50 is listed for CC1(C)CCCCCCC2CC2CCCCCC(C)(C)C1=O (centres undefined) ?
> 100 µM (inactive)

What value of measured GI50 is listed for O=C1C=C(c2ccccc2)OC1C1Sc2ccccc2NC1=O (centres undefined) ?
13.8 µM (inactive)

What value of measured GI50 is listed for O=C1CC[C@@]23CC(=O)O[C@@H]2CCCC3C1 (some centres undefined) ?
> 100 µM (inactive)

What value of measured GI50 is listed for CC(=O)OC1(C)C(=O)OC1(C)C(C)=O (centres undefined) ?
> 100 µM (inactive)

What value of measured GI50 is listed for COC(=O)[C@]1(C)C(OC)=CC(=O)C2C1[C@H]1CCC[C@@H]21 (some centres undefined) ?
> 100 µM (inactive)

What value of measured GI50 is listed for CC(C)n1c(=O)[nH]n(-c2ccccc2)c1=O ?
> 100 µM (inactive)

What value of measured GI50 is listed for COc1ccc(OC)c2c(C)ccnc12 ?
46.1 µM (inactive)

What value of measured GI50 is listed for O=C(O)c1ccc2c(c1)C(=O)N(c1ccc(S(=O)(=O)c3ccc(N4C(=O)c5ccc(C(=O)O)cc5C4=O)cc3)cc1)C2=O ?
> 100 µM (inactive)

What value of measured GI50 is listed for CO/N=C1\CC(NC(=O)CNC(=O)OC(C)(C)C)c2ccsc21 (centres undefined) ?
> 100 µM (inactive)

What value of measured GI50 is listed for CCOC(=O)c1nnsc1NN ?
> 100 µM (inactive)

Hello, the source for this data is ChEMBL document CHEMBL1201862, in case you need it.
